Quick reference: EC50 of the listed items.
target.system: T1, in vitro misfolded/aggregated human SOD1 (metal-catalyzed oxidation) (human, UniProt P00441 2-154, oxidized by metal-catalyzed oxidation (4 mM ascorbic acid, 0.2 mM CuCl2, 48 hours at 37 C); residues not stated)
T1 construct: also called Oxidized SOD1; in vitro aggregated human SOD1 dimers
T1 sequence (P00441 2-154 limits assumed): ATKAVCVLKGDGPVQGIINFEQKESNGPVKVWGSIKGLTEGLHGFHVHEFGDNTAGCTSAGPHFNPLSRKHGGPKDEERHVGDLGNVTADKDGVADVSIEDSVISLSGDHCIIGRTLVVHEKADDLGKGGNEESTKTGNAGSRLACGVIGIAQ
measurement.protocol: direct ELISA, in vitro aggregated human SOD1 coated at 34 µg/ml
Just the number in nM, nothing appended.

Here's what some known entries look like.
- binder: "NI-204.10A8 (antibody, human IgG1, V domains shown) VH: EVQLVESGAEVKEPGSSVRVSCKTSGGSFNRHVITWVRQAPGQGLEWMGEIIPFFGTPKYAPKFQGRVTIIADASTSTFFLDVKSLTSEDTALYFCWIVVVSVVQRREDFWGQGILVTVSS VL: EIVLTQSPSSLSASVGDTVTITCRSSQNISNYLSWFQHKPGKAPRILVYAASTLQTGVPSRFSGRGSGTIFTLSITSLQSEDYATYYCQQNDKIPRTFGQGTKVEIK"
  EC50 / nM: 29.5
- binder: "NI-204.9F6 (antibody, human IgG1, V domains shown, also called NI-209.9F6) VH: EVQLVESGGGLVQPGGSLRLSCAVSGFTFDTFAMSWVRQAPGKGLEWVSAITASSSKTYYADSVKGRFTISRDNSRNTVYLRLSSLRADDTAVYFCARPKGAHSGLYIESAFDLWGPGTMVTVSS VL: SYVLTQPPSVSVSAGQTASITCSADMLGDTYVSWYQKRPGQSPVLLIYQDSKRPSEIPERFSGSSSEDTATLTITGTQALDEAAYYCQVWDRRTTTYVFGPGTEVTVL"
  EC50 / nM: 127
- binder: "NI-204.10D12 (antibody, V domains shown) VH: EVQLVESGGDLVRPGGSLRLSCVASGFTFSNYWMHWVRQAPGQRPVWVSRTNTDGRNTAYADYAKGRFTISRDNAKSTLYLQLNSLRAEDTAVYFCARLRRNVADQITHNYYMDVWGKGTLVTVSS VL: EIVLTQSPGSLAVSLGERATINCKSSQTVLYNNKNYLAWYQQKPGQPPKLLISWASSRESGVPDRFSGSGSGTDFTLTISSLQAEDVAVYYCQHYYGTPVTFGGGTKVEIK"
  EC50 / nM: 15

Inquiry: Look at this binder and give its reported EC50. NI-204.12G7 (antibody, human IgG1, V domains shown) VH: EVQLVESGAEVKKPGASVTLSCKASGYTFTAYYIHWVRQAREQGLEWMGVINPSTGTTFYAQNFPDRVSVTRDTSTSTVFMELHNLKSEDTAVYYCARAISEHGSGSYSPYYWGQGTLVTVSS VL: SYVLTQPPSVSVSLGQMAAITCSGEALPKKYGYWYQQKPGQVPVLLIYRDVERPSGVPDRFSGSSSGTMVTLTISGVQAEDEADYYCLSADSSGTWVFGGGTKLTVL
Reply text: 3.6
